Measured values drawn from PubChem BioAssay (NCI) for this set.

Tested on: LOX IMVI melanoma
Assay: NCI-60 one-dose screen, 48 h
Conditions: 10 µM unless noted
The panel holds about 83,000 compounds, 20% with a hit somewhere; the sample as a whole holds those more often. Active and inactive are the calls of the source. The calls were made as follows: active = growth percent below 10; inactive = the rest.
I would appreciate it if you answered using one of these outcomes: active, inactive

compound	testTarget	discreteLabel
CN1CCN(c2ccc(Nc3nc(NCCCNS(=O)(=O)c4ccc(C(F)(F)F)cc4)c4sccc4n3)cc2)CC1	LOX IMVI melanoma	active
O=C(O)c1ccc(-n2c(=O)n(-c3cccc(C(F)(F)F)c3)c(=O)c3cc(-c4ccc(F)cc4F)ccc32)cc1	LOX IMVI melanoma	active
Brc1cccc(-c2cc(-c3ccc4c(c3)OC=CO4)[nH]n2)c1	LOX IMVI melanoma	inactive
CN1CCN(Cc2ccc(NC(=O)c3cncc(C#Cc4cnc(N)nc4)c3)cc2C(F)(F)F)CC1	LOX IMVI melanoma	active
O=C(Nc1cc(C(F)(F)F)cc(C(F)(F)F)c1)Nc1ccc2oc(=O)ccc2c1	LOX IMVI melanoma	active

query: Can you look up the reported call for CC1(C)CC[C@]23CC[C@]4(C)[C@H](CC[C@@H]5[C@@]6(C)CC[C@H](N)C(C)(C)[C@@H]6CC[C@]54C)[C@H]2[C@H]1OC3 for me?
result: active

query: Which outcome did this test record for the compound NS(=O)(=O)c1ccc(CCn2c(-c3ccc(C(=O)O)cc3)nc(-c3ccccc3)c2-c2ccccc2)cc1 ?
result: inactive

query: Test call for this compound, please: CN(C)c1ccc(/C=N/Nc2nc(N/N=C/c3ccc(N(C)C)cc3)nc(N3CCCCC3)n2)cc1
result: active

query: // param item: CN1CCN(Cc2ccc(NC(=O)c3cncc(C#Cc4cnc5ccc(OC6CCOCC6)nn45)c3)cc2C(F)(F)F)CC1 ; yields the recorded call
result: active

query: GET /call?item= CCCCc1nc2c(N)nc3ccccc3c2n1Cc1cccc(CN)c1 returns the recorded outcome of this test.
result: inactive

query: Each compound tested received a call. Report the one for Cc1ccc2c(n1)C(=O)C(Cl)=C(Nc1ccc(C(=O)OC(C)(C)C)cc1)C2=O .
result: active

query: Just curious, what result did Clc1ccc(CSc2nnc(-c3ccc(Cl)cc3)n2-c2ccccc2)cc1 get here?
result: inactive

query: What is the recorded call for this compound in the test? Cc1cc(=O)oc2cc(OCCCOc3ccc(/C=C/C(=O)Nc4ccc(Br)cc4)cc3)ccc12
result: inactive

query: What did the test return for Cc1ccc2c(n1)C(=O)C(Cl)=C(Nc1cccc(C(F)(F)F)c1)C2=O ?
result: active

query: What call does the record list for C#C[C@]1(O)CC[C@H]2[C@@H]3CC=C4c5sc(Nc6cc(Cl)ccc6OC)nc5CC[C@]4(C)[C@H]3CC[C@@]21C ?
result: active

----------
Test system: SF-268 CNS
Experiment: NCI-60 one-dose screen, 48 h (100 = growth as untreated, 0 = no growth, -100 = all killed)
Settings: 10 µM unless noted
Description: Cells are grown in 96 well plates and exposed to the test compound for 48 hours. Compounds are tested at a single concentration, which is 10^-5 M for most compounds. The reported endpoint is percent growth (GI% or GIPRCNT), where numbers from 0 - 100% represent growth inhibition, and numbers from -100% - 0 represent cell death. For example, a value of 40 represents 60% growth inhibition. A value of 0 means no net growth occurred over the course of the experiment. […]
This is part of a sample that, as a whole, favours compounds with a hit. Of some 83,000 tested, about 20% had one in any assay.
recordedMetric: growth (%)
One number for each entry, in %.

compound	recordedMetric	obsValue
NC(N)=NS(=O)(=O)c1ccc(N=Nc2c(N)nn(-c3ccc([N+](=O)[O-])cc3[N+](=O)[O-])c2N)cc1	growth	100
O=C(N/N=C\c1ccc(F)cc1)c1ccc2nc(-c3ccc(Br)cc3)[nH]c2c1	growth	44.8
Nn1c(=O)n(-c2cccc(C(F)(F)F)c2)c(=O)c2cc(-c3ccc(F)cc3F)ccc21	growth	17.8
COc1ccccc1/C=C1\Oc2ccc(O)c(O)c2C1=O	growth	102
Clc1ccc2[nH]cc(-c3nn4cc(-c5cccnc5)nc4s3)c2c1	growth	107
O=C(CCCCCCNC(=O)C(O)(O)C(F)(F)F)Nc1ccc(-c2ccccc2)cc1	growth	-4.51
CC(Nc1c(C#N)cnc2ccc(-c3cncc(-c4n[nH]c(=O)o4)c3)cc12)c1ccccc1 (stereo not given)	growth	12.2
CN1CCN(c2ccc(Nc3nc(NCCNC(=O)c4ccc(F)cc4)c4sccc4n3)cc2)CC1	growth	73.8
COc1cc(/C=N\NC(=O)c2ccc3nc(-c4ccc(Br)cc4)[nH]c3c2)cc(OC)c1OC	growth	51.7
CCN(CC)S(=O)(=O)c1ccc(-c2nc(C(Cl)Cl)nc3cc(C)nn23)cc1	growth	56.1

For every record below, what is its growth?
1. O=C1/C(=C/c2cc(F)cc(F)c2)Cc2cc3c(cc21)OCO3
2. CC(=O)Nc1nc(C)c(-c2csc(Nc3ccccc3)n2)s1
3. O=C(CSc1nc2ccccc2c(=O)n1CCc1ccccc1)Nc1ccc(S(=O)(=O)Nc2ccc(Cl)nn2)cc1
4. CN(C)c1ccc(/C=N/Nc2nc(N/N=C/c3ccc(N(C)C)cc3)nc(N3CCCCC3)n2)cc1
5. O=C(CSc1cc[n+](CCCCO)c2ccccc12)n1ccc2ccccc21
6. COc1ccc(-c2nc(C#N)c(N3CCC(S(=O)(=O)N4CCOCC4)CC3)o2)cc1
7. Cc1ccc(Nc2nc(SC(C)C)nc(-c3ccccc3)c2C#N)cc1
8. CSc1ccc(/C(=N/N=C(N)N)c2ccc(Cl)cc2)cc1

result:
1: 64.7; 2: 46.7; 3: 96.7; 4: 105; 5: 109; 6: 94.2; 7: 82; 8: 19.3

Return reported growth values for all items listed beneath this line.
1. Cc1cc2nc3c4cc(C#N)ccc4n(CCN(C)C)c3nc2cc1C
2. CNC(=O)Nc1ccc(Nc2cc(-c3ccc(-n4cccn4)cc3)[nH]n2)c(C)c1

result:
-7.74
103
